- measured-on: IGF2 (Homo sapiens, UniProt P01344)
- Sequence (P01344 25-91): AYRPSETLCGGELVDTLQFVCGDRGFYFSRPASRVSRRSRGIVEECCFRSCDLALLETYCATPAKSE
- assay-protocol: SPR (Biacore T200) of recombinant IGF2R domain 11 mutants on immobilised biotinylated IGF2
- Format: binding
- Set-up: purchased GroPep
- assay-conditions: Table 4; MES-EP pH 6.5
endpoint: Kinetics koff (s⁻¹)
Report only the number, with the unit s⁻¹ understood.

Item AB5 Q1569R P1597H G1603K: domain 11 AB5 + Q1569R, P1597H, G1603K (protein) MKSNEHDDCQVTNPSTGHLFDLSSLSGRAGFTAAYAKGWGVYMSICGENENCPPGVGACFGRTRISVGKANKRLRYVDQVLQLVYKDGSHCPSKSKLSYKSVISFVCRPEAGPTNRPMLISLDKQTCTLFFSWHTPLACEQATECSV : provide Kinetics koff
0.0051
